Recorded values, source patent US20210040155A1.

Target or test system: melanocortin-1 receptor (human, UniProt Q01726 1-317)
Sequence (Q01726 whole entry): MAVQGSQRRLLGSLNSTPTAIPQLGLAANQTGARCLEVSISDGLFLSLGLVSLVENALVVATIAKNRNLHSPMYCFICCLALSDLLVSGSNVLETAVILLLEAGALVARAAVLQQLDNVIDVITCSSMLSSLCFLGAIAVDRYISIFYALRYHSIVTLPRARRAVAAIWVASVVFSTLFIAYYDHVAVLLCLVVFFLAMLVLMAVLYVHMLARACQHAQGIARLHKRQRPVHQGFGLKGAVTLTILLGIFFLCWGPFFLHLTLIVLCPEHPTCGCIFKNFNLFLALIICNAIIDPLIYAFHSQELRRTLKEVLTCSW
Protocol text: cell-based or functional assay
Bridge positions count the residues as written; N and C are the ends. Square brackets hold non-standard residues; d marks the D form. Pen = CC(C)(S)[C@H](N)C(=O)O; hCys = N[C@@H](CCS)C(=O)O
Here the recorded Ratios of EC50 values MC 1/4 (MC1R against MC4R) is given for each entry.
Please reply with the bare figure in ratio and do not write the unit itself.

- Ac-RC[dA]P[dF]RWC-NH2 (disulfide 2-8; SMILES CC(=O)N[C@@H](CCCNC(=N)N)C(=O)N[C@H]1CSSC[C@@H](C(N)=O)NC(=O)[C@H](Cc2c[nH]c3ccccc23)NC(=O)[C@H](CCCNC(=N)N)NC(=O)[C@@H](Cc2ccccc2)NC(=O)[C@@H]2CCCN2C(=O)[C@@H](C)NC1=O) [Ac-Arg-cyclo[Cys-D-Ala-Pro-D-Phe-Arg-Trp-Cys]-NH2]: 5

Problem: Fill in the blank: the reported Ratios of EC50 values MC 1/4 (MC1R against MC4R) of Ac-RC[dL]H[dF]RWC-NH2 (disulfide 2-8) [Ac-Arg-cyclo[Cys-D-Leu-His-D-Phe-Arg-Trp-Cys]-NH2] is ____.
Result: 0.68

Problem: And the next one, Ac-R[hCys][dA][dF]RW[Pen]-NH2 (disulfide 2-7; SMILES CC(=O)N[C@@H](CCCNC(=N)N)C(=O)N[C@H]1CCSSC(C)(C)[C@@H](C(N)=O)NC(=O)[C@H](Cc2c[nH]c3ccccc23)NC(=O)[C@H](CCCNC(=N)N)NC(=O)[C@@H](Cc2ccccc2)NC(=O)[C@@H](C)NC1=O) [Ac-Arg-cyclo[hCys-D-Ala-D-Phe-Arg-Trp-Pen]-NH2] ?
Result: 15

Problem: Also, Ac-R[hCys]A[dF]RWC-NH2 (disulfide 2-7; SMILES CC(=O)N[C@@H](CCCNC(=N)N)C(=O)N[C@H]1CCSSC[C@@H](C(N)=O)NC(=O)[C@H](Cc2c[nH]c3ccccc23)NC(=O)[C@H](CCCNC(=N)N)NC(=O)[C@@H](Cc2ccccc2)NC(=O)[C@H](C)NC1=O) [Ac-Arg-cyclo[hCys-Ala-D-Phe-Arg-Trp-Cys]-NH2] please.
Result: 15
